experiment: RP, Thermo Scientific Hypersil GOLD aQ, 100 × 2.1 mm, 1.9 µm, 30 °C, 0.3 mL/min, estimated dead time 0.73 min; A: water + 0.1% formic acid; B: methanol + 0.1% formic acid + 4 mM ammonium formate; gradient (min/%B) 0/0 1/0 8/100 10/100; settings: stereoisomer not certain
Assign Condition met whenever LC retention time does not fall below 7 min; assign Condition not met whenever it does.

Below, 5 compounds whose answers are already recorded.
C=CC(C)(C)C12CC3C(=O)NC(=Cc4cnc[nH]4)C(=O)N3C1Nc1ccccc12 (stereo unspecified): Condition not met
CC(=O)OCC12CC(OC(=O)CC(C)C)C(C)=CC1OC1C(O)C(OC(C)=O)C2(C)C12CO2 (stereo unspecified): Condition not met
CC(=O)OC1CC2(C)C3(CO3)C1OC1C=C(C)C(=O)C(O)C12CO (stereo unspecified): Condition not met
CC(=O)OCC12C(C=C(C)C(=O)C1O)OC1C(O)CC2(C)C12CO2 (stereo unspecified): Condition not met
CC(=O)OCC12CC(O)C(C)=CC1OC1C(O)C(OC(C)=O)C2(C)C12CO2 (stereo unspecified): Condition not met

Read the next record carefully.
Is LC retention time at least 7 min? Consider COc1cc2c(c3oc4cccc(O)c4c(=O)c13)C1C=COC1O2 (stereo unspecified)
Condition met
